test: NCI Yeast Anticancer Drug Screen. Data for the bub3 strain (AID 167); conditions: S. cerevisiae bub3 mutant strain, at 50.0 µM
Compounds without any hit were thinned out: in the full panel of roughly 79,000, 15% have a hit. Active and inactive are the calls of the source. No stated cut-off is given here; in the data, active means growth inhibition above about 70%; inactive means the rest.
Labels: active, inactive

>>> assigned_label("CCOC(=O)C1=C(C)NC(C)=C(C(=O)OCC)C1c1c(-c2ccccc2)noc1C")
"inactive"
>>> assigned_label("COc1cc(C2=NCCO2)cc(OC)c1OC")
"inactive"
>>> assigned_label("O=C1CCCC1C(=O)OC1CCCC1 (stereo unspecified)")
"inactive"
>>> assigned_label("S=C(N/N=C(/c1ccccc1)c1ccccn1)N1CCCCC1")
"active"
>>> assigned_label("CCCCCCC(C)S(=O)(=O)c1ccc(C)cc1 (stereo unspecified)")
"inactive"
>>> assigned_label("COc1cc2c(c(O)c1OC)-c1c(cc(OC)c(OC)c1OC)CC(C)C(C)C2 (stereo unspecified)")
"inactive"
>>> assigned_label("CC(c1ccccc1C(=O)O)c1cccc2ccccc12 (stereo unspecified)")
"active"
>>> assigned_label("CC(=O)OC1OC2C(NC(=O)OC(C)(C)C)C1CC2(OCc1ccccc1)OCc1ccccc1 (stereo unspecified)")
"inactive"
>>> assigned_label("CCCCCCCCCCCC(=O)[O][Sn]([CH2]C)([CH2]C)[O]C(=O)CCCCCCCCCCC")
"inactive"
>>> assigned_label("CSc1c(S(C)=O)c2ccccc2n1C (stereo unspecified)")
"inactive"
>>> assigned_label("CN(C)C1CCC2C(=C1OC(=O)c1ccccc1)C=Cc1ccccc12 (stereo unspecified)")
"inactive"

====

test: NCI Yeast Anticancer Drug Screen. Data for the mlh1 rad18 strain (AID 175); conditions: S. cerevisiae mlh1 rad18 strain growth inhibition; at 50.0 µM; hits give high values
Compounds without any hit were thinned out: in the full panel of roughly 79,000, 15% have a hit.
Binning scheme for growth inhibition: low bracket (below 60%), middle bracket (60% to below 90%), high bracket (90% or more)

>>> assigned_label("CN(C)C1=NC2=S(SC(Nc3ccccc3)=N2)S1 (stereo unspecified)")
"low bracket"
>>> assigned_label("O=C1c2ccccc2-c2cc([N+](=O)[O-])c([N+](=O)[O-])cc21")
"high bracket"
>>> assigned_label("OCC1CCc2[nH]c3ccccc3c2C1 (stereo unspecified)")
"low bracket"
>>> assigned_label("CC(=O)N[C@H]1CCC2[C@@H]3CCC4=CC(=O)NCC[C@]4(C)C3CC[C@@]21C (stereo partly specified)")
"low bracket"
>>> assigned_label("COc1ccc2cc(CNCCCCCCCCNCc3ccc4cc(OC)ccc4c3)ccc2c1")
"high bracket"
>>> assigned_label("C#CC[N+](CC)(CC)CCNC(=O)CCCCCCCCCCCCCCC")
"high bracket"
>>> assigned_label("CC(Nc1cc(Cl)cc(Cl)c1)c1ccncc1 (stereo unspecified)")
"low bracket"
>>> assigned_label("CC1(C)CC(N(C(=O)/C=C/c2ccc([N+](=O)[O-])o2)C2CCCCC2)CC(C)(C)N1")
"middle bracket"
>>> assigned_label("COC(=O)C1(c2ccc(N(C)C)cc2OC)CCCN(C(=O)Oc2ccccc2[N+](=O)[O-])CCc2c1[nH]c1ccccc21 (stereo unspecified)")
"middle bracket"

====

experiment: NCI Yeast Anticancer Drug Screen. Data for the cln2 rad14 strain (AID 165);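 further: 0% = growth equal to vehicle treated cultures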; settings: S. cerevisiae cln2 rad14 strain, at 50.0 µM (retest, dose inferred, filed as 5.0), hits give high values
Compounds without any hit were thinned out: in the full panel of roughly 79,000, 15% have a hit.
quantity_kind: growth inhibition (%)

>>> experimental_value("N#C/C(=C\\C(Cl)=C/c1ccccc1)C(N)=S")
95
>>> experimental_value("CCCCC(Cc1ccccc1)(C(=O)O)c1ccccc1 (stereo unspecified)")
99
>>> experimental_value("CS(=O)(=O)OCCN(CCOS(C)(=O)=O)c1ccc(C=Nc2ccc3oc(=O)ccc3c2)cc1")
77
>>> experimental_value("CCOc1ccc2c(c1)nc1cc(Cl)ccc1[n+]2C")
68
>>> experimental_value("Nc1cc(Br)cc2c1[nH]c1ccc(Br)cc12")
97
>>> experimental_value("OC(Cc1ccc2ccccc2c1)CN1CCC(c2ccccc2)CC1 (stereo unspecified)")
88

====

assay: NCI Yeast Anticancer Drug Screen. Data for the bub3 strain (AID 167); settings: S. cerevisiae bub3 mutant strain, at 50.0 µM (retest, dose inferred, filed as 5.0)
The panel holds about 79,000 compounds, 15% with a hit somewhere; the sample as a whole holds those more often. Calls of active or inactive are those of the source. Cut-off read from the data, not from the text of the source: active = growth inhibition above about 70%; inactive = the rest.
Labels: 1 (active), -1 (inactive)

>>> assigned_label("COc1cc(/C=C/C2=C(C)C(=O)CC(c3cc(OC)c(OC)c(OC)c3)C2C)cc(OC)c1OC (stereo unspecified)")
-1
>>> assigned_label("OB1c2ccccc2CCc2ccccc21")
1
>>> assigned_label("Cc1ccc(NNC(=O)C(O)C(O)C(O)C(O)CO)cc1 (stereo unspecified)")
1
>>> assigned_label("COc1ccc2c(c1)OC(OC)(c1ccccc1)C(O)(OC)C2=O (stereo unspecified)")
-1
>>> assigned_label("CC(=O)OC1COC(N2C(=O)C(=O)c3cc(Br)ccc32)C(OC(C)=O)C1OC(C)=O (stereo unspecified)")
-1
>>> assigned_label("O=C(/C=C/c1ccccc1)NOC(=O)/C=C/c1ccccc1")
1
>>> assigned_label("S=C(Nc1ccccc1)N(Cc1ccccc1)c1ccccc1")
-1
>>> assigned_label("COc1ccc(C2Cc3cc(OC)ccc3C2=O)cc1 (stereo unspecified)")
1
>>> assigned_label("COC(=O)c1c2oc3c(C(=O)OC)cccc3nc-2cc(N)c1=O")
-1
>>> assigned_label("CSc1nc(SC)c2cn(Cc3ccccc3)nc2n1")
1
>>> assigned_label("CC(=O)OC(C)C1C2=C(C(=O)CC1(C)O)C(=O)c1c(ccc(-c3ccc4c(c3O)C(=O)C3=C(C4=O)C(C(C)OC(C)=O)C(C)(O)CC3=O)c1O)C2=O (stereo unspecified)")
1

====

assay: NCI Yeast Anticancer Drug Screen. Data for the sgs1 mgt1 strain (AID 161);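 further: 0% = growth of cultures given vehicle only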; conditions: S. cerevisiae sgs1 mgt1 strain, at 5.0 µM (retest, dose inferred, filed as 0.5), hits give high values
Compounds without any hit were thinned out: in the full panel of roughly 79,000, 15% have a hit. The source made the active and inactive calls. Rule as the data show it: active = growth inhibition above about 70%; inactive = the rest.
The reader will find reported growth inhibition values listed item by item below.
quantity_kind: growth inhibition

>>> experimental_value("CCOC(=O)c1ccc(NC(=O)O/N=C(/Cl)CC)cc1")
"-26% (inactive)"
>>> experimental_value("O=C(CSc1nccc(=O)[nH]1)c1ccccc1")
"5% (inactive)"
>>> experimental_value("O=[N+]([O-])c1c(Cl)ccc2nsnc12")
"-14% (inactive)"
>>> experimental_value("COc1ccc2cc(C(=O)CCCC(C)C(=O)O)ccc2c1 (stereo unspecified)")
"0% (inactive)"
>>> experimental_value("O=C1c2cc(F)ccc2-c2c(F)cc(F)c(F)c21")
"2% (inactive)"
>>> experimental_value("[Cl][Sn]1([Cl])[CH2]CC[CH2][Sn]([Cl])([Cl])[CH2]CC[CH2][Sn]([Cl])([Cl])[CH2]CC[CH2][Sn]([Cl])([Cl])[CH2]CC[CH2]1")
"-3% (inactive)"
>>> experimental_value("COC(=O)C1=C(C)NC(C)=C([N+](=O)[O-])C1c1cccc(N=O)c1 (stereo unspecified)")
"27% (inactive)"
>>> experimental_value("Cc1ccc(C)c(NC(=O)/C(=N\\NC(N)=S)C(C#N)c2ccccc2)c1 (stereo unspecified)")
"2% (inactive)"
>>> experimental_value("CCCCCCCCCCCC(=O)N(CCCCCCCCC)CC(O)C(O)C(OC1OC(CO)C(O)C(O)C1O)C(O)CO (stereo unspecified)")
"-36% (inactive)"
>>> experimental_value("Cc1nc(C(N)=S)sc1C(=O)C/C(=N/N)C(=O)Nc1cccc(Cl)c1C")
"-7% (inactive)"
>>> experimental_value("CCCCCCCCCCCC(O)=C1C(=O)CC(O)CC1=O (stereo unspecified)")
"48% (inactive)"
>>> experimental_value("COc1cccc2c1S(=O)(=O)C(c1ccccc1)=CC2=O")
"55% (inactive)"
>>> experimental_value("CC1C/C(=N\\N(C)C)C(C#N)(C#N)C1(C#N)C#N (stereo unspecified)")
"26% (inactive)"
>>> experimental_value("CN(C)c1ccc(/C=C/C(=O)c2ccc([N+](=O)[O-])cc2)cc1")
"-9% (inactive)"
>>> experimental_value("Cc1c2ccccc2c(=O)n2c(-c3ccccn3)cccc12")
"7% (inactive)"
>>> experimental_value("CC(=O)/C(=C/n1c(=S)[nH]c2ccc([N+](=O)[O-])cc21)C(=O)Nc1ccc(Cl)cc1")
"0% (inactive)"
>>> experimental_value("CC(C)=CCC/C(C)=C/COc1ccc(/C=C2/C(=O)N(O)[C@@H](C)C(=O)N2O)cc1")
"66% (inactive)"
>>> experimental_value("Cc1cc(C(=O)O)c(C)cc1SSc1cc(C)c(C(=O)O)cc1C")
"4% (inactive)"
>>> experimental_value("CN(C)CCNc1ccc2nnn3c4ccc(O)cc4c(=O)c1c23")
"12% (inactive)"
>>> experimental_value("C/C=C(\\C)[C@H](O)C(COCc1ccccc1)NS(=O)(=O)c1ccc(C)cc1 (stereo partly specified)")
"-7% (inactive)"
>>> experimental_value("CCN(CC)CCOc1ccc(C(=C2CCCCC2)c2ccc(OCCN(CC)CC)cc2)cc1")
"31% (inactive)"
